tested on: IL-1β, IL-6, IFN-γ, TNF-α, IL-8, MIP-1α, MCP-1, MIP-10, RANTES; test: Cynomolgus monkeys: cytokine and chemokine assays (Example 30); format: in vivo; details: 25 mg/kg s.c.; day 55
In the oligonucleotide strings, read from the 5' end, every base follows the letter of its sugar. An asterisk marks phosphorothioate; unmarked linkages are phosphodiester. Other units and linkages are bracketed, terminal groups are in braces. A string of capitals states the bases alone. e = 2'-O-(2-methoxyethyl) (MOE); [5mC] = 5-methylcytosine; d = 2'-deoxy (DNA)
Readings of IL-1β level for the listed substances

Worked cases, IL-1β level given:
| substance | IL-1β level |
| --- | --- |
| ISIS 416858: gapmer of Table 8 (antisense eA*e[5mC]*eG*eG*e[5mC]*dA*dT*dT*dG*dG*dT*dG*d[5mC]*dA*d[5mC]*eA*eG*eT*eT*eT) | 28 pg/mL |
| ISIS 445531: microwalk gapmer of Table 51 (antisense eG*eG*e[5mC]*eA*eT*dT*dG*dG*dT*dG*d[5mC]*dA*d[5mC]*eA*eG*eT*eT*eT) | 155 pg/mL |
| ISIS 449707: microwalk gapmer of Table 53 (antisense e[5mC]*eA*e[5mC]*eA*dG*dT*dT*dT*d[5mC]*dT*dG*dG*e[5mC]*eA*eG*eG) | 97 pg/mL |

Enquiry: Form field - read-out: IL-1β level; system: IL-1β, IL-6, IFN-γ, TNF-α, IL-8, MIP-1α, MCP-1, MIP-10, RANTES; submitted item: ISIS 445522: microwalk gapmer of Table 51 (antisense eG*e[5mC]*eA*e[5mC]*eA*dG*dT*dT*dT*d[5mC]*dT*dG*dG*e[5mC]*eA*eG*eG*e[5mC])
Return: 341 pg/mL

----------
Measured Inhibition of Factor XI protein relative to the PBS control by item
Tested on: Factor XI protein
Experiment: Cynomolgus monkeys: plasma Factor XI protein ELISA (Example 30)
Type: in vivo
Conditions: 25 mg/kg s.c.; plasma ELISA; Day 38
Experimental: Groups, each consisting of two male and two female monkeys, were injected subcutaneously with 25 mg/kg of ISIS 416850, ISIS 449709, ISIS 445522, ISIS 449710, ISIS 449707, ISIS 449711, ISIS 449708, 416858 and ISIS 445531. […] Body weights were taken 14 days and 7 days before the start of treatment and were then measured weekly throughout the treatment period. […] The results are presented in Table 148, expressed as percentage reduction relative to that of the PBS control.
In the oligonucleotide strings, read from the 5' end, every base follows the letter of its sugar. An asterisk marks phosphorothioate; unmarked linkages are phosphodiester. Other units and linkages are bracketed, terminal groups are in braces. A string of capitals states the bases alone. e = 2'-O-(2-methoxyethyl) (MOE); [5mC] = 5-methylcytosine; d = 2'-deoxy (DNA)
Give just the number in %; leave the unit off.

Reference set (5 entries):
| substance | unitString | measValue |
| --- | --- | --- |
| 416850 (antisense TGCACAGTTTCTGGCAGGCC; 5-10-5 gapmer, wing sugar chemistry not given here, further chemistry not given here) [compound 416850] | % | 51 |
| 445522 (antisense eG*e[5mC]*eA*e[5mC]*eA*dG*dT*dT*dT*d[5mC]*dT*dG*dG*e[5mC]*eA*eG*eG*e[5mC]) [compound 445522] | % | 73 |
| 449708 (antisense eA*e[5mC]*eA*dG*dT*dT*dT*d[5mC]*dT*dG*dG*e[5mC]*eA*eG) [compound 449708] | % | 9 |
| 449711 (antisense eA*e[5mC]*dA*dG*dT*dT*dT*d[5mC]*dT*dG*dG*d[5mC]*eA*eG) [compound 449711] | % | 2 |
| 445531 (antisense eG*eG*e[5mC]*eA*eT*dT*dG*dG*dT*dG*d[5mC]*dA*d[5mC]*eA*eG*eT*eT*eT) [compound 445531] | % | 29 |

Field: next substance
Enquiry: Returns the measured Inhibition of Factor XI protein relative to the PBS control for the input substance. Input: 449709 (antisense eG*e[5mC]*eA*e[5mC]*dA*dG*dT*dT*dT*d[5mC]*dT*dG*dG*d[5mC]*eA*eG*eG*e[5mC]) [compound 449709]
Return: 46
